System: CAKI-1 renal
Experiment: NCI tumour cell line growth inhibition, 48 h
Answer Criterion not met if TGI is under 30 µM, and Criterion met if it is 30 µM or more.

Use these answered entries as a reference point.
>  <MOLECULE>
C=C1C2CC[C@@](C)(O)C2[C@H]2OC(=O)C(=C)[C@@H]2C[C@H]1O (some centres not stated)

>  <CATEGORY>
Criterion not met

$$$$
>  <MOLECULE>
C[N+](C)(C)CC1CCc2ccccc2C1=O (configuration not stated)

>  <CATEGORY>
Criterion not met

$$$$

Entry Nc1ncc2ccc3c(ccn3C3CC(O)C(CO)O3)c2n1 (configuration not stated) : is its TGI no less than 30 µM?
Criterion met

Dear colleague, could you confirm whether CO/N=C(\COc1ccc2c(=O)cc(-c3ccccc3)oc2c1)c1ccc(F)cc1 has TGI at or above 30 µM?
Criterion met

Does O=C1C=CC2(C=C1)CCC(=O)O2 have a reported TGI of at least 30 µM?
Criterion not met

TGI >= 30 µM for CSC1C=C(C(C)C)CCC1(C)SC (configuration not stated) ?
Criterion met
